Test: Apparent permeability from basolateral to apical side in human Caco-2 cells at 2 uM with pH 7.4 incubated for 2 hrs by LC-MS analysis
Type: ADME, cell-based
Conditions: Caco-2, pH 7.4
OUTCOME MEASURE: Papp B→A at 2 h, 2 µM (×10⁻⁶ cm/s)
Please respond with the number in ×10⁻⁶ cm/s and leave the unit unwritten.

The molecule identified as COc1cccc2[nH]c(C(=O)N[C@@H](CC(C)C)C(=O)N[C@@H](C[C@@H]3CCNC3=O)C(=O)COC(=O)c3c(C(F)(F)F)cc(C)nc3C)cc12 registered its Papp B→A at 2 h, 2 µM at 24.3

The molecule identified as COc1cccc2[nH]c(C(=O)N[C@@H](CC(C)C)C(=O)N[C@@H](C[C@@H]3CCCNC3=O)C(=O)COC(=O)c3c(C)cc(C)nc3C)cc12 registered its Papp B→A at 2 h, 2 µM at 21.8

The molecule identified as COc1cccc2[nH]c(C(=O)N[C@@H](CC(C)C)C(=O)N[C@@H](C[C@@H]3CCCNC3=O)C(=O)COC(=O)c3c(C(F)(F)F)cc(C)nc3C)cc12 registered its Papp B→A at 2 h, 2 µM at 28.9

###

Assay: Metabolic stability in human plasma measured at 2 hrs by LC-MS analysis
Assay type: ADME, cell-free
Conditions: read-out: Stability
OUTCOME MEASURE: remaining at 2 h (%)
Please respond with the number in % and leave the unit unwritten.

The molecule identified as COc1cccc2[nH]c(C(=O)N[C@@H](CC(C)C)C(=O)N[C@@H](C[C@@H]3CCCNC3=O)C(=O)COC(=O)c3c(C(F)(F)F)cccc3C(F)(F)F)cc12 registered its remaining at 2 h at 100

The molecule identified as COc1cccc2[nH]c(C(=O)N[C@@H](CC(C)C)C(=O)N[C@@H](C[C@@H]3CCCNC3=O)C(=O)COC(=O)c3c(C)cc(C)nc3C)cc12 registered its remaining at 2 h at 100

The molecule identified as COc1cccc2[nH]c(C(=O)N[C@@H](CC(C)C)C(=O)N[C@@H](C[C@@H]3CCCNC3=O)C(=O)COC(=O)c3ccccc3)cc12 registered its remaining at 2 h at 67

The molecule identified as COc1cccc2[nH]c(C(=O)N[C@@H](CC(C)C)C(=O)N[C@@H](C[C@@H]3CCCNC3=O)C(=O)COC(=O)C(C)(C)C)cc12 registered its remaining at 2 h at 100

The molecule identified as COc1cccc2[nH]c(C(=O)N[C@@H](CC(C)C)C(=O)N[C@@H](C[C@@H]3CCCNC3=O)C(=O)COC(=O)c3c(C(F)(F)F)cc(C)nc3C)cc12 registered its remaining at 2 h at 99

The molecule identified as COc1cccc2[nH]c(C(=O)N[C@@H](CC(C)C)C(=O)N[C@@H](C[C@@H]3CCCNC3=O)C(=O)COC(=O)C(C)(C)C#N)cc12 registered its remaining at 2 h at 0

###

Assay: in vitro
Conditions: human, A549 cells
OUTCOME MEASURE: CC50 at 24 h

The compound identified as COc1cccc2[nH]c(C(=O)N[C@@H](CC(C)C)C(=O)N[C@@H](C[C@@H]3CCNC3=O)C(=O)COC(=O)c3c(C(F)(F)F)cc(C)nc3C)cc12 registered its CC50 at 24 h at > 201 µM

The compound identified as COc1cccc2[nH]c(C(=O)N[C@@H](CC(C)C)C(=O)N[C@@H](C[C@@H]3CCCNC3=O)C(=O)COC(=O)c3c(C(F)(F)F)cccc3C(F)(F)F)cc12 registered its CC50 at 24 h at > 200 µM

The compound identified as COc1cccc2[nH]c(C(=O)N[C@@H](CC(C)C)C(=O)N[C@@H](C[C@@H]3CCCNC3=O)C(=O)COC(=O)c3c(Cl)cccc3Cl)cc12 registered its CC50 at 24 h at > 200 µM

The compound identified as COc1cccc2[nH]c(C(=O)N[C@@H](CC(C)C)C(=O)N[C@@H](C[C@@H]3CCCNC3=O)C(=O)COC(=O)c3c(C)cc(C)nc3C)cc12 registered its CC50 at 24 h at > 200 µM

The compound identified as COc1cccc2[nH]c(C(=O)N[C@@H](CC(C)C)C(=O)N[C@@H](C[C@@H]3CCCNC3=O)C(=O)COC(=O)c3c(C)nc(C)nc3C)cc12 registered its CC50 at 24 h at > 200 µM

The compound identified as CC(=O)OCC(=O)[C@H](C[C@@H]1CCNC1=O)NC(=O)[C@H](CC(C)C)NC(=O)OCc1cccc(Cl)c1 registered its CC50 at 24 h at > 200 µM
